Measured values drawn from patent US20090042978A1 for this set.

- measurement_protocol: Toxicological studies (LD50, LD0, MTD), intraperitoneal
- Format: in vivo, female Balb/c mice
- conditions: mouse, in vivo, ip; single intraperitoneal injection, female Balb/c mice; read-out: LD50
- Description: The same animal model used for in vivo anti-leishmanial tests was used to perform comparative toxicological studies of the β-nitrovinylfuran derivatives. The main excipient of the compositions used with this purpose was the sunflower oil. […] The maximal non-lethal doses (LD0) were calculated from the dose-mortality curves. […]
// reported log10(LD50) for each item listed
measurement_name: log10(LD50) (log10 of the value in mg/kg)

O=[N+]([O-])C(Br)=Cc1ccc(Br)o1 [D, 2-bromo-5-(2-bromo-2-nitrovinyl)-furan] = 1.38
O=[N+]([O-])C=Cc1ccco1 [A, 2-(2-nitrovinyl)-furan] = 1.83
CC(=Cc1ccco1)[N+](=O)[O-] [E, 2-(2-methyl-2-nitrovinyl)-furan] = 1.90
O=[N+]([O-])C(Br)=Cc1ccco1 [Compound C, 2-(2-bromo-2-nitrovinyl)-furan] = 1.71
CC(=Cc1ccc(Br)o1)[N+](=O)[O-] [F, 2-bromo-5-(2-methyl-2-nitrovinyl)-furan] = 2.39
O=[N+]([O-])C=Cc1ccc(Br)o1 [B, 2-bromo-5-(2-nitrovinyl)-furan] = 1.86
